System: CDP-Hep3B cells
Assay: MTT cell viability assay with sorafenib, CDP-Hep3B cells
Assay type: cell-based
Details: Homo sapiens, 12000 cells/well, 48 hours, n=3 independent experiments, read-out: calculated IC50 (cell viability)
quantity: IC50 (µM)
Answer with a number only, understood to be in µM.

Form: molecule = `CNC(=O)c1cc(Oc2ccc(NC(=O)Nc3ccc(Cl)c(C(F)(F)F)c3)cc2)ccn1` ; IC50 = 4.64

Reference for the values: patent US20240075108A1
